# study-system: Fuc(a1-2)Gal(b1-4)[Fuc(a1-3)]GlcNAc(b1-2)Man(a1-3)[Fuc(a1-2)Gal(b1-4)[Fuc(a1-3)]GlcNAc(b1-2)Man(a1-6)]Man(b1-4)GlcNAc(b1-4)[Fuc(a1-6)]GlcNAc
# assay-procedure: glycan array binding signal (z-score within array); higher = stronger binding
# test-context: glycan notation: IUPAC condensed, linker removed
Only a selection was taken, and the strongest signals are over-represented in it overall.
assay-endpoint: glycan array binding signal (z-score)
Please state the value as a number alone, without comment.

Which glycan array binding signal (z-score) reading was recorded for the binder Epa3 (Candida glabrata), Q6VBI8_CANGB (protein) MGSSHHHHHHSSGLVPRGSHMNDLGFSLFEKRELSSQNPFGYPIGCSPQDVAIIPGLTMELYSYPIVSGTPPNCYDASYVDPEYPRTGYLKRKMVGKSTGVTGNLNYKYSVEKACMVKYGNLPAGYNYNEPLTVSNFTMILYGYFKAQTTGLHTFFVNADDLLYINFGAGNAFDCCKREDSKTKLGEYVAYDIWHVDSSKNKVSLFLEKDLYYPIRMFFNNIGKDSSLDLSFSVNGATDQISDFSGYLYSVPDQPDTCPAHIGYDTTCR ?
0.042

Which glycan array binding signal (z-score) reading was recorded for the binder LecB LY19 (Pseudomonas aeruginosa) (protein) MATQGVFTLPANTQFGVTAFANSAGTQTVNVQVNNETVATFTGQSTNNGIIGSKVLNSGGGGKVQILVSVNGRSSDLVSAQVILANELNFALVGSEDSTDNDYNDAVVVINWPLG ?
5.32

Which glycan array binding signal (z-score) reading was recorded for the binder Epa3to2 (Candida glabrata) (protein) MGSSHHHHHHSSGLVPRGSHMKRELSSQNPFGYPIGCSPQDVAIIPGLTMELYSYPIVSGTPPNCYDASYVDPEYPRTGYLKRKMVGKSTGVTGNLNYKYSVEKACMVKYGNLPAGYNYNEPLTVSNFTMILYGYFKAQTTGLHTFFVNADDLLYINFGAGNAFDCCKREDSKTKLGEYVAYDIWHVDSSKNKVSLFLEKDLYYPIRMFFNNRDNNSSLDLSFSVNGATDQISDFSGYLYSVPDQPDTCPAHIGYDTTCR ?
2.47

Which glycan array binding signal (z-score) reading was recorded for the binder Epa6 (Candida glabrata), Q6DTM7_CANGB (protein) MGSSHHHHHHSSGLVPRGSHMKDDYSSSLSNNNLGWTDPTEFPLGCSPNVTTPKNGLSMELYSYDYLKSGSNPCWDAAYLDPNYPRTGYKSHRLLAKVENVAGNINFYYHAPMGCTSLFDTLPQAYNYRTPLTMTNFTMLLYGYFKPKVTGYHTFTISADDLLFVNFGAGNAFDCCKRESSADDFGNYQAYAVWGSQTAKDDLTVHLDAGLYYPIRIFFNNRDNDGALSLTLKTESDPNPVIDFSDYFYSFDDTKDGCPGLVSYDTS ?
-0.257

Which glycan array binding signal (z-score) reading was recorded for the binder Mnn9-2N3 (Aspergillus fumigatus) (protein) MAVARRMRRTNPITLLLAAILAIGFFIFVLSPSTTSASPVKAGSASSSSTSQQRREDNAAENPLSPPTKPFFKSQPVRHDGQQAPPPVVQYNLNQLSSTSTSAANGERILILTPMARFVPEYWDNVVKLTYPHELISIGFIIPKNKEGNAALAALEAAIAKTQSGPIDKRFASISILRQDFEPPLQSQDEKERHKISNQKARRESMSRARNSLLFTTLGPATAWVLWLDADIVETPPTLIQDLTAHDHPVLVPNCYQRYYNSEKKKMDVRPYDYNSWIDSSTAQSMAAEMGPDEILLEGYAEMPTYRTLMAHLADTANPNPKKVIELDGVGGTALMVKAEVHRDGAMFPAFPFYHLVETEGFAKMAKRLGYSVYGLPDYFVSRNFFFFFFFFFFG ?
3.21
